System: SAOS-2
test_details: Cytotoxicity against human Saos2 cells after 4 days by propidium iodide staining-based fluorometric analysis
Type: functional, cell-based
setup_conditions: SAOS-2, 96 h, read-out: IC50
Just a reminder that ties go to not satisfied: only IC50 strictly below 9 µM counts as satisfied.

*Q* Please check: IC50 for O=C(c1cc2ccccc2[nH]1)c1cc2c(Nc3ccc(F)c(Cl)c3)ncnc2s1 , strictly under 9 µM or not?
*A* not satisfied

*Q* Say whether its IC50 is strictly beneath 9 µM. Entry: COc1ccc2[nH]c(C(=O)c3cc4c(Nc5ccc(F)c(Cl)c5)ncnc4s3)cc2c1
*A* not satisfied

*Q* For CS(=O)(=O)CCNCc1ccc(-c2ccc3ncnc(Nc4ccc(OCc5cccc(F)c5)c(Cl)c4)c3c2)o1 , is the recorded IC50 below the cut-off of 9 µM?
*A* not satisfied

*Q* API: query returns whether the compound falls strictly under 9 µM in IC50. Query: O=C(c1cc2cc(O)ccc2[nH]1)c1cc2c(Nc3ccc(F)c(Cl)c3)ncnc2s1
*A* satisfied

*Q* Please let me know if O=C(c1cc2ccccc2[nH]1)c1cc2c(Nc3cccc(Cl)c3)ncnc2s1 shows IC50 below 9 µM.
*A* not satisfied

----------
Would you kindly list IC50 for each of these molecules?
test_details: Cytotoxicity against human LXFA 526L cells after 4 days by propidium iodide staining-based fluorometric analysis
Format: functional, cell-based
setup_conditions: 96 h
Number in µM, nothing else.

*Q* Query (molecule): C#Cc1cccc(Nc2ncnc3cc(OCCOC)c(OCCOC)cc23)c1 ; field requested: IC50
*A* 100

*Q* What does the data say about its IC50? Entry: O=C(c1cc2ccccc2[nH]1)c1cc2c(Nc3ccc(F)c(Cl)c3)ncnc2s1
*A* 10.7

*Q* Give its IC50 value. Item: COc1ccc2[nH]c(C(=O)c3cc4c(Nc5ccc(F)c(Cl)c5)ncnc4s3)cc2c1
*A* 28.5

*Q* Endpoint output: IC50 of O=C(c1cc2cc(O)ccc2[nH]1)c1cc2c(Nc3ccc(F)c(Cl)c3)ncnc2s1 . Value?
*A* 4.36

*Q* // IC50 lookup, key: CS(=O)(=O)CCNCc1ccc(-c2ccc3ncnc(Nc4ccc(OCc5cccc(F)c5)c(Cl)c4)c3c2)o1
*A* 4.21

*Q* Requested field: IC50. Item: O=C(c1cc2ccccc2[nH]1)c1cc2c(Nc3cccc(Cl)c3)ncnc2s1
*A* 13.6

----------
test_details: Cytotoxicity against human LXFL 529L cells after 4 days by propidium iodide staining-based fluorometric analysis
Assay type: functional, cell-based
setup_conditions: 96 h
I'd be grateful if you could share measured IC50 for these entries.
Your answer is read as µM, so omit the unit and give the number.

*Q* Look up IC50 for this molecule: CS(=O)(=O)CCNCc1ccc(-c2ccc3ncnc(Nc4ccc(OCc5cccc(F)c5)c(Cl)c4)c3c2)o1 [LAPATINIB]
*A* 3.51

*Q* Query: IC50; subject: O=C(c1cc2ccccc2[nH]1)c1cc2c(Nc3cccc(Cl)c3)ncnc2s1
*A* 7.6

*Q* Please give the measured IC50 for this molecule: C#Cc1cccc(Nc2ncnc3cc(OCCOC)c(OCCOC)cc23)c1 [ERLOTINIB]
*A* 17.4

*Q* What value of measured IC50 is listed for COc1ccc2[nH]c(C(=O)c3cc4c(Nc5ccc(F)c(Cl)c5)ncnc4s3)cc2c1 ?
*A* 14.8

*Q* Quick check: IC50 of O=C(c1cc2ccccc2[nH]1)c1cc2c(Nc3ccc(F)c(Cl)c3)ncnc2s1 ?
*A* 8.61

*Q* Which value of IC50 has been reported for O=C(c1cc2cc(O)ccc2[nH]1)c1cc2c(Nc3ccc(F)c(Cl)c3)ncnc2s1 in the records?
*A* 4.87

----------
Would you mind telling me the reported inhibition of each entry?
tgt: UniProtKB P04626
Sequence (P04626 whole entry): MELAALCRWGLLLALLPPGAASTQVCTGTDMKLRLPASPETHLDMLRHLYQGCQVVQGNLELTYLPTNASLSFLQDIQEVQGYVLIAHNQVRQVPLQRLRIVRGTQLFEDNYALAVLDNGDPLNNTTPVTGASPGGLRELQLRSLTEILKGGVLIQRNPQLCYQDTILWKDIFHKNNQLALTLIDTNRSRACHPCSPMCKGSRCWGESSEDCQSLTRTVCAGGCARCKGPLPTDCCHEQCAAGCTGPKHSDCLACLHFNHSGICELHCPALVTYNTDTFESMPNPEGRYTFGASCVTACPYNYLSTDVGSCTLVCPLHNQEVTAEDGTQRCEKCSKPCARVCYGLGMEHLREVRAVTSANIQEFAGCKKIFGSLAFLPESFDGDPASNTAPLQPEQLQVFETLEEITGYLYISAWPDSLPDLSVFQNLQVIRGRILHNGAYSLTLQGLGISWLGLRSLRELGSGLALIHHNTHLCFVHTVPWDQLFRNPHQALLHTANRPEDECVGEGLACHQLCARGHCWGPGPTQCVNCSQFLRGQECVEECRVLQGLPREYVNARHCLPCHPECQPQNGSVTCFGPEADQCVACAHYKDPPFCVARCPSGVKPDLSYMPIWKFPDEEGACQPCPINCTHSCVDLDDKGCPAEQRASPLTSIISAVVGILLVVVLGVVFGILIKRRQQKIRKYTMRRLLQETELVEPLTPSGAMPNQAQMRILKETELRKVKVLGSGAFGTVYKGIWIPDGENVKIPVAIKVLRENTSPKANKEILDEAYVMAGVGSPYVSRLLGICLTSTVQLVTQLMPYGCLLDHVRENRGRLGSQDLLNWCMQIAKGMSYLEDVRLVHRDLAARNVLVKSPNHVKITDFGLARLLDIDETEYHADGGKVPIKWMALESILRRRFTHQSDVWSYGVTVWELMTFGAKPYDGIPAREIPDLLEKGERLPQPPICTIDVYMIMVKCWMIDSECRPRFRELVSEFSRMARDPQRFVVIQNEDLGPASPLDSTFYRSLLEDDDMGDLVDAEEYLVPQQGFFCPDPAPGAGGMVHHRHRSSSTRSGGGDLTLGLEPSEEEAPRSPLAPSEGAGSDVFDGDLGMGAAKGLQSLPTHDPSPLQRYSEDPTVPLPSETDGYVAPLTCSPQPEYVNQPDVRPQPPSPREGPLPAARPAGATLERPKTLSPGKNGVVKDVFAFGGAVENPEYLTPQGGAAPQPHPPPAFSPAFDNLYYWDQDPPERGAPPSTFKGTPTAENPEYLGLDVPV
test_details: Inhibition of Erbb2 using poly(Glu,Tyr)4:1 as substrate and [gamma33P]ATP at 1 uM after 60 mins by scintillation counting
Please give a number only; it is taken to be in %.

*Q* Given the entry C#Cc1cccc(Nc2ncnc3[nH]c(C(=O)c4cc5ccccc5[nH]4)cc23)c1 , what inhibition was observed with UniProtKB P04626?
*A* 70

*Q* What value of inhibition on UniProtKB P04626 does O=C(c1cc2ccccc2[nH]1)c1cc2c(Nc3cccc(Cl)c3)ncnc2s1 have?
*A* 73

*Q* Request: inhibition, test system UniProtKB P04626, entry C#Cc1cccc(Nc2ncnc3sc(C(=O)c4cc5ccccc5[nH]4)cc23)c1
*A* 60

*Q* # returns recorded inhibition (system: UniProtKB P04626) for O=C(c1cc2ccccc2[nH]1)c1cc2c(Nc3cccc(I)c3)ncnc2[nH]1
*A* 52

*Q* Param readout = inhibition; param system = UniProtKB P04626; param query = O=C(c1cc2ccccc2[nH]1)c1cc2c(Nc3ccc(C(F)(F)F)cc3)ncnc2s1 ; response: value
*A* 34

*Q* What is its inhibition for UniProtKB P04626? Entry: COc1ccc2[nH]c(C(=O)c3cc4c(Nc5ccc(F)c(Cl)c5)ncnc4s3)cc2c1
*A* 60

*Q* Report inhibition for CN(c1ccc(F)c(Cl)c1)c1ncnc2sc(C(=O)c3cc4ccccc4[nH]3)cc12 tested on UniProtKB P04626.
*A* 83

*Q* Hello, I am looking for reported inhibition with UniProtKB P04626 for O=C(c1cc2ccccc2[nH]1)c1cc2c(Nc3ccc(OCc4cccc(F)c4)cc3Cl)ncnc2s1 . Could you help?
*A* 57

----------
Would you kindly list IC50 for each of these molecules?
test_details: Cytotoxicity against human MDA231 cells after 4 days by propidium iodide staining-based fluorometric analysis
Assay type: functional, cell-based
setup_conditions: MDA-MB-231, 96 h
The response must be a number in µM with no trailing unit.

*Q* Entry under review: CS(=O)(=O)CCNCc1ccc(-c2ccc3ncnc(Nc4ccc(OCc5cccc(F)c5)c(Cl)c4)c3c2)o1 [LAPATINIB] . Reported IC50?
*A* 7.7

*Q* Query (molecule): O=C(c1cc2ccccc2[nH]1)c1cc2c(Nc3ccc(F)c(Cl)c3)ncnc2s1 ; field requested: IC50
*A* 8.04

*Q* Give its IC50 value. Item: COc1ccc2[nH]c(C(=O)c3cc4c(Nc5ccc(F)c(Cl)c5)ncnc4s3)cc2c1
*A* 17.1

*Q* IC50 lookup needed for O=C(c1cc2ccccc2[nH]1)c1cc2c(Nc3cccc(Cl)c3)ncnc2s1 , thanks.
*A* 23.4

*Q* Recorded IC50 for O=C(c1cc2cc(O)ccc2[nH]1)c1cc2c(Nc3ccc(F)c(Cl)c3)ncnc2s1 , please?
*A* 7.65

*Q* Please look up its IC50: C#Cc1cccc(Nc2ncnc3cc(OCCOC)c(OCCOC)cc23)c1 [ERLOTINIB]
*A* 34.5

----------
Test system: SAOS-2
test_details: Cytotoxicity against human Saos2 cells after 4 days by propidium iodide staining-based fluorometric analysis
Type: functional, cell-based
setup_conditions: SAOS-2, 96 h
experimental_endpoint: pIC50
In plain terms, pIC50 is the concentration in mol/L turned into minus its base-10 logarithm.

*Q* Which pIC50 value belongs to C#Cc1cccc(Nc2ncnc3cc(OCCOC)c(OCCOC)cc23)c1 [ERLOTINIB] ?
*A* 4.68

----------
Could you please report measured inhibition for the items listed next?
tgt: Vascular endothelial growth factor receptor 2 (Homo sapiens) (UniProt P35968)
Sequence (P35968 whole entry): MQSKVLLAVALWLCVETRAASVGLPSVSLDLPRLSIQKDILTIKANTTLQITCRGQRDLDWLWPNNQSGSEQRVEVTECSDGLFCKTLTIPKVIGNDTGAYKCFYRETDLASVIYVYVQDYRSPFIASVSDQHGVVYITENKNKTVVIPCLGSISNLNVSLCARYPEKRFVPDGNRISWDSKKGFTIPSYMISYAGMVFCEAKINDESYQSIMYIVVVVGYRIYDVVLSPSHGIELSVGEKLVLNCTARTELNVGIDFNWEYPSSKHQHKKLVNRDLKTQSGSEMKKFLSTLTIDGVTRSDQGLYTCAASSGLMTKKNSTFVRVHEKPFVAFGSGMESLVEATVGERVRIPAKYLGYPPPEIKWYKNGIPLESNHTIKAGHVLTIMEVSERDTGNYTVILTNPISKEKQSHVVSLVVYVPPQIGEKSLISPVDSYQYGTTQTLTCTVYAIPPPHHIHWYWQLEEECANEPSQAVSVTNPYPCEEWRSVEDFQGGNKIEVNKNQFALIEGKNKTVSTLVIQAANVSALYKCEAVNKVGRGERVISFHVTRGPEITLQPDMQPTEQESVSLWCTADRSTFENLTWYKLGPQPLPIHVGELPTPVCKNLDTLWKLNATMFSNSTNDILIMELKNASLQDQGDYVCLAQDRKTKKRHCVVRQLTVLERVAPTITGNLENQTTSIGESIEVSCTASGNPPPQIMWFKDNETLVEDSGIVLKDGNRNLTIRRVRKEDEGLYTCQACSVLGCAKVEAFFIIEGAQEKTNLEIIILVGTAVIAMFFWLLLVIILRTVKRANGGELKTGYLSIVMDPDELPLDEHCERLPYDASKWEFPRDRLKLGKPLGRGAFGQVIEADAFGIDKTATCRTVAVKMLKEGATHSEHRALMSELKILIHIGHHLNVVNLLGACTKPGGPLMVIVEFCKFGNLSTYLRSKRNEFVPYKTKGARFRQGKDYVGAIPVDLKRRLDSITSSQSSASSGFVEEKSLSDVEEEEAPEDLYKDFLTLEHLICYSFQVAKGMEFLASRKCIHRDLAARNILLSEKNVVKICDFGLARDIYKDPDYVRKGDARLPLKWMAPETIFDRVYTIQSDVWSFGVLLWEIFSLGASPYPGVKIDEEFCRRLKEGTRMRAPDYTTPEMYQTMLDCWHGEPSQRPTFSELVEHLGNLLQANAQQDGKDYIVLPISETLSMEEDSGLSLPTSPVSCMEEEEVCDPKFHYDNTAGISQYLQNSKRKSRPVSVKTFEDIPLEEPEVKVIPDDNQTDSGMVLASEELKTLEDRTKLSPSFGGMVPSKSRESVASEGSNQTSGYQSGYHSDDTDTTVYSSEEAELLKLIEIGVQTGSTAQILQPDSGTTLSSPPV
test_details: Inhibition of VEGFR2 using poly(Glu,Tyr)4:1 as substrate and [gamma33P]ATP at 1 uM after 60 mins by scintillation counting
Return type: number; implicit unit %.

*Q* Consider the compound shown here: O=C(c1cc2ccccc2[nH]1)c1cc2c(Nc3cccc(I)c3)ncnc2s1 What is its recorded inhibition?
*A* 0

*Q* Field request: inhibition | item: O=C(c1cc2ccccc2[nH]1)c1cc2c(Nc3cccc(Cl)c3)ncnc2s1
*A* 20

*Q* Reported inhibition for O=C(c1cc2ccccc2[nH]1)c1cc2c(Nc3ccc(Cl)cc3)ncnc2s1 : what is it?
*A* 19

*Q* Request the reported inhibition associated with O=C(c1cc2ccccc2[nH]1)c1cc2c(Nc3cccc(I)c3)ncnc2[nH]1
*A* 10

*Q* Sample O=C(c1cc2ccccc2[nH]1)c1cc2c(Nc3ccc(F)c(Cl)c3)ncnc2[nH]1 — what was its inhibition?
*A* 47

*Q* Data request, read-out inhibition, for COc1ccc2[nH]c(C(=O)c3cc4c(Nc5cccc(I)c5)ncnc4[nH]3)cc2c1
*A* 17

*Q* Given O=C(c1cc2ccccc2[nH]1)c1cc2c(Nc3ccc(OCc4cccc(F)c4)cc3Cl)ncnc2[nH]1 , state its recorded inhibition.
*A* 53

*Q* May I ask what inhibition has been recorded for O=C(c1cc2ccccc2[nH]1)c1cc2c(Nc3cccc(C(F)(F)F)c3)ncnc2s1 ?
*A* 29

*Q* Tell me the measured inhibition of COc1cnc2[nH]c(C(=O)c3cc4c(Nc5cccc(I)c5)ncnc4[nH]3)cc2c1 , please.
*A* 20

*Q* Name the recorded inhibition for O=C(c1cc2ccccc2s1)c1cc2c(Nc3ccc(F)c(Cl)c3)ncnc2s1 .
*A* 22

*Q* Value lookup for inhibition; key = O=C(c1cc2cc(O)ccc2[nH]1)c1cc2c(Nc3ccc(F)c(Cl)c3)ncnc2s1
*A* 10

*Q* What does the record list as inhibition for O=C(c1cc2ccccc2[nH]1)c1cc2c(Nc3ccc(Br)cc3F)ncnc2s1 ?
*A* 46

*Q* What value of inhibition has been reported for the following compound? O=C(c1cc2cc(O)ccc2[nH]1)c1cc2cncnc2[nH]1
*A* 0

*Q* Endpoint output: inhibition of C#Cc1cccc(Nc2ncnc3[nH]c(C(=O)c4cc5ccccc5[nH]4)cc23)c1 . Value?
*A* 5

*Q* Find the recorded inhibition belonging to O=C(c1cc2ccccc2[nH]1)c1cc2c(Nc3ccc(OCc4cccc(F)c4)cc3Cl)ncnc2s1 and report it.
*A* 29

*Q* Find the recorded inhibition belonging to O=C(c1cc2ccccc2o1)c1cc2c(Nc3ccc(F)c(Cl)c3)ncnc2s1 and report it.
*A* 51

*Q* Can you share its inhibition? I mean this compound: C[C@@H](Nc1ncnc2[nH]c(C(=O)c3cc4ccccc4[nH]3)cc12)c1ccccc1
*A* 28

*Q* Using the record for O=C(c1cc2ccccc2[nH]1)c1cc2c(Nc3ccc(Cl)cc3)ncnc2[nH]1 , report its inhibition.
*A* 47

*Q* Tell me the measured inhibition of COc1ccc2[nH]c(C(=O)c3cc4c(Nc5ccc(F)c(Cl)c5)ncnc4s3)cc2c1 , please.
*A* 55

FYI, the data here is from ChEMBL document CHEMBL1926681.
